target: T1, recombinant mouse DLL4 (mouse, UniProt Q9JI71 27-532); assay: binding ELISA, coated rmDLL4
T1 construct: extracellular domain; also called rmDLL4; mDLL4
T1 sequence (Q9JI71 27-532): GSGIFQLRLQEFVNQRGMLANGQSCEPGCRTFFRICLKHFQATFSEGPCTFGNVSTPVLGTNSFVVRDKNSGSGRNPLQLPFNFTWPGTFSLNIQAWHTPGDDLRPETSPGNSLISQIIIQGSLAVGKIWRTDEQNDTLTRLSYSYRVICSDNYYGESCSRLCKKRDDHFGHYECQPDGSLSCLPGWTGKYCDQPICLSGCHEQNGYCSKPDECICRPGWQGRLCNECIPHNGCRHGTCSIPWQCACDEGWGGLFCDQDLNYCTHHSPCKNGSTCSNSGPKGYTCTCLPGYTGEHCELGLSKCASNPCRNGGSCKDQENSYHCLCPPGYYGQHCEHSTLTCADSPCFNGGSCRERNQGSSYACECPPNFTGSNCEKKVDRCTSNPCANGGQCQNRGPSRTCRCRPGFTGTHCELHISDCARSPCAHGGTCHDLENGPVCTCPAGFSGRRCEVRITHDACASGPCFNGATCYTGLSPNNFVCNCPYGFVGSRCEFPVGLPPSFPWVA
# note: exactly 30 nM is not below, so it is Condition not met; use Condition met for EC50 strictly under it

Q: Lab log: compare recorded EC50 with 30 nM; is it strictly lower for DLLBII101G08 (VHH, also called 101G8; DLLBII101G8) VHH: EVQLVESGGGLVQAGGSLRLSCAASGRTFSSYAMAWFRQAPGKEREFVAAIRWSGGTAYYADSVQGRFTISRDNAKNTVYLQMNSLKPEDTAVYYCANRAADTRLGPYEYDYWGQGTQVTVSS ?
Result: Condition not met

Q: Please indicate whether the reported EC50 of DLLBII96C03 (VHH, also called 96C3) VHH: EVQLVESGGGLVQPGGSLRLSCAASGFTFGNYDMSWVRQAPGKGPEWVSAINSGGGDTYYADSVKGRFTISRDNAKNTLYLQMNSLKPEDTAVYYCATPRGWGPTGPHEYGYWGQGTQVTVSS is strictly below 30 nM.
Result: Condition met
